SYSTEM UNDER TEST: rat GHS-R (GHS receptor) expressed on CHO-GHSR62 cells (rat, UniProt O08725 1-364)
Sequence (O08725 whole entry): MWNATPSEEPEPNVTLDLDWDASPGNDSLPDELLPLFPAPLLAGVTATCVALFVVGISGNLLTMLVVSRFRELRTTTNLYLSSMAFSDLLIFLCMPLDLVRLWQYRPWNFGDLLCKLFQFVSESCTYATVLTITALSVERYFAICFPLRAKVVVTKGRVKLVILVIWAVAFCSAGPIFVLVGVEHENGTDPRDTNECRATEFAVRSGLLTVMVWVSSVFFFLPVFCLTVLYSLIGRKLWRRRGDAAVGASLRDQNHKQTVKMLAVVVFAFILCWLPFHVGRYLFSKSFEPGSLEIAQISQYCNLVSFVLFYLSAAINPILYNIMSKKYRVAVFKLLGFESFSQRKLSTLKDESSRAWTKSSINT
ASSAY DETAILS: cell-based or functional assay
Ends that are not written are not given here. * marks the point of attachment. Decanoyl = CCCCCCCCCC(=O)*; Octanoyl = CCCCCCCC(=O)*
Decide using Ca-releasing activity (EC50, nM) alone. Strictly below 20 nM: Criterion met. Equal to or above 20 nM: Criterion not met.

GSS(Octanoyl)FLSPE [Ghrelin (1-8)] :: Criterion not met

Quick check: Ca-releasing activity (EC50, nM) of GSS(Octanoyl)FLSPEHQ [Ghrelin (1-10)] under 20 nM?
Criterion met

Quick check: Ca-releasing activity (EC50, nM) of GSS(Decanoyl)FLSPEHQKAQQRKESKKPPAKLQPR [[Ser^3(Decanoyl)]-rGhrelin] under 20 nM?
Criterion met

Quick check: Ca-releasing activity (EC50, nM) of GSS(Octanoyl)F [Ghrelin (1-4)] under 20 nM?
Criterion not met

Quick check: Ca-releasing activity (EC50, nM) of GSS(Octanoyl)FLSPEHQRVQQR [hGhrelin (1-15)] under 20 nM?
Criterion met

Quick check: Ca-releasing activity (EC50, nM) of GSS(Octanoyl)FLSPEHQKAQRKESKKPPAKLQPR [rat ghrelin-27] under 20 nM?
Criterion met

Quick check: Ca-releasing activity (EC50, nM) of KESKKPPAKLQPR (not fully specified) [Ghrelin (16-28)] under 20 nM?
Criterion not met
